Target or system: human P2X3 receptor (Homo sapiens (Human))
Sequence (P56373 whole entry): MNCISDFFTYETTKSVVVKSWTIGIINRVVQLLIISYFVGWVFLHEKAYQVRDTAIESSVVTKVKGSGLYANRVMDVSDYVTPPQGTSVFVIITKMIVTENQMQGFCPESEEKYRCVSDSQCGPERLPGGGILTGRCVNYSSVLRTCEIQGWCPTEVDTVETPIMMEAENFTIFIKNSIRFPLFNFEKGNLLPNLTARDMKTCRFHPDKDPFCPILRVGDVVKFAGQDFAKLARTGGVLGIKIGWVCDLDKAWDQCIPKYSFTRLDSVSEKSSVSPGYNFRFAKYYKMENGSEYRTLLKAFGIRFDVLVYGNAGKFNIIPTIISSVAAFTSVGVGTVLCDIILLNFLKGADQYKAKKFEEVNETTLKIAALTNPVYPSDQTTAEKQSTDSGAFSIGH
Assay name: Evaluation of human P2X3 receptor inhibitory activity (Test Example 1-2, FLIPR 384, 384-well, 150 nM ATP)
Type: cell-based
Particulars: human P2X3 receptor in C6BU-1 cells; Test Example 1-2 (compounds I-301 to I-483); read-out: P2X3 IC50
Text: […]
pIC50: −log10 of the molar value.
Classification field: Yes = pIC50 at or over 8; No = pIC50 under 8.

INSERT INTO assay_data (smiles_str, target_or_system, assigned_label) VALUES
  ('CCC(=O)Nc1c[nH]/c(=N\c2ccc(Oc3cc(C)cnn3)cc2)n(Cc2ccc(Cl)cc2)c1=O', 'human P2X3 receptor (Homo sapiens (Human))', 'No');

Reported pIC50 at or above 8? CC(C)(C)c1c[nH]/c(=N\c2ccc(Oc3cccc(C(=O)O)n3)cc2)n(Cc2ccc(Cl)cc2)c1=O
Yes

Form field: pIC50 at least 8? Entry: COCCn1c(=O)cc(Nc2ccc(Oc3cccc(C#N)n3)c(C)n2)n(Cc2ccc(Cl)cc2)c1=O
Yes

====

Here the recorded pIC50 is given for each entry.
Target or system: UniProt:P56373
Assay name: Evaluation of human P2X3 receptor inhibitory activity (Test Example 1-2, FLIPR 384, 384-well, 150 nM ATP)
Assay type: cell-based
Particulars: human P2X3 receptor in C6BU-1 cells; Test Example 1-2 (compounds I-301 to I-483); read-out: P2X3 IC50
# log scale: pIC50 equals minus log10 of the concentration in mol/L

Answered cases to consult:
INSERT INTO measurements (smiles_str, assay_endpoint, result_number) VALUES
  ('CCCc1c[nH]/c(=N\c2ccc(Oc3cccc(C(=O)O)n3)cc2)n(Cc2ccc(Cl)cc2)c1=O', 'pIC50', 7.89),
  ('O=C(O)c1cccc(Oc2ccc(/N=c3\[nH]cc(-c4ccccn4)c(=O)n3Cc3ccc(Cl)cc3)cc2)n1', 'pIC50', 8.15),
  ('CC(C)c1c[nH]/c(=N\c2ccc(Oc3ncc(C(=O)O)s3)cc2)n(Cc2ccc(Cl)cc2)c1=O', 'pIC50', 8.05);

Please report pIC50 with UniProt:P56373 for item Cc1noc(-c2c[nH]/c(=N\c3ccc(Oc4cccc(C(N)=O)n4)cc3)n(Cc3ccc(Cl)cc3)c2=O)n1 .
7.89
